test method notes: small-molecule microarray binders of probe aLefty2, primary screen, biochemical, biotinylated probe, 635/667 nm fluorescence (AID 1094);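 also: score merges spot fluorescence near 667 nm with spot signal-to-noise ratio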
test settings: higher = more signal
# cutoff 0.06 applies to composite z-score; >= gives label 1, < gives label 0

Recorded results for 3 compounds are shown here.
- compound: "COc1cc2c(cc1OC)CN(C(=O)[C@H]1[C@@H]3C(=O)O[C@@H](c4ccccc4)[C@@H](c4ccccc4)N3[C@@H](c3ccc(OCCO)cc3)[C@]13C(=O)Nc1ccc(C#CC4(O)CCCCCC4)cc13)CC2"
  class assignment: "label 1"
- compound: "COc1ccc(NN2C(C(O)c3ccccn3)C=CC3C(=O)N(C4CCCCC4)C(=O)C32)cc1 (stereo not drawn)"
  class assignment: "label 1"
- compound: "C=CCC(OC(C)=O)[C@@H]1[C@@H](N(Cc2cc3ccccc3o2)C(=O)Cc2ccc(F)cc2)c2cc(OCCCO)ccc2N1C(=O)c1ccc2ccccc2n1 (stereo partly drawn)"
  class assignment: "label 0"

Is composite z-score for CCOC(=O)C1=CC[C@@H](c2ccccc2)N(S(=O)(=O)c2ccc(C)cc2)C1 at or above 0.06?
label 1

Is composite z-score for C=CCOC(=O)[C@@H]1[C@H]2C(=O)O[C@H](c3ccccc3)[C@H](c3ccccc3)N2[C@H](c2ccc(OCCOC(=O)[C@H]3C[C@H]4C(=O)N[C@@H](CCCCNC(C)=O)C(=O)N4[C@H]3c3cccc(OCCO)c3)cc2)[C@@]12C(=O)Nc1ccc(I)cc12 at or above 0.06?
label 0
